molecular target: T1, RIPK2^1−300 (human, UniProt O43353 1-300, labelled with the Monolith Protein labelling kit RED-NHS second generation (primary amines) for MST only); test: MST; RIPK2 1-300 labelled with RED-NHS at 20 nM final, XIAP BIR2 constructs titrated from 1.2-2,500 nM; 20 mM Hepes pH 7.5, 150 mM NaCl, 2% glycerol, 0.05% Tween-20; 20°C; one-site binding model, triplicates; conditions: both partners purified
T1 construct: RIPK2, human, kinase domain, residues 1-300; also called kinase domain of RIPK2 (residues 1–300); source: sf21 insect cells (baculovirus), purified (amylose resin, TEV cleavage, anion exchange)
T1 sequence (O43353 1-300): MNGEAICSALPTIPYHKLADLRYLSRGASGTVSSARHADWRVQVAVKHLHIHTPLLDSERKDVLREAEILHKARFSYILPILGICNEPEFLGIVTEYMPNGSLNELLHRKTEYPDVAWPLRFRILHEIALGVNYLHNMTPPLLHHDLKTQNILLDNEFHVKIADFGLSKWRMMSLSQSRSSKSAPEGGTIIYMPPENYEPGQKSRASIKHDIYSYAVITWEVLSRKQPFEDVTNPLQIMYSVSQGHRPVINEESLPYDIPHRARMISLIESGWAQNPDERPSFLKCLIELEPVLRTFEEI
pKd: −log10 of the molar value.
MEASURED ATTRIBUTE: pKd

binder="XIAP BIR2^154–240 (domain or fragment, human, UniProt P98170 154-240, looked up, Plasmid pET49, a gift from Katrin Rittinger; also called short BIR2 construct; source: E. coli Rosetta 2, purified (glutathione sepharose, P3C cleavage, SEC); not shown: GST, N-terminal, cleaved) YPRNPAMYSEEARLKSFQNWPDYAHLTPRELASAGLYYTGIGDQVQCFCCGGKLKNWEPCDRAWSEHRRHFPNCFFVLGRNLNIRSE" reported=7.07
